system: Streptococcus pneumoniae; assay: Antimicrobial activity against erythromycin-resistant Streptococcus pneumoniae A22072 expressing the mef gene by broth microdilution method; assay type: functional
Exercise: for every item that follows, state its recorded MIC.
Answers are plain numbers, in µg/mL.

Some solved entries appear below for comparison.
| smiles | experimental.target | result.unit | MIC |
| --- | --- | --- | --- |
| CCCCCNC(=O)CCCCCNC(=O)O[C@H]1[C@H](C)O[C@@H](O[C@H]2[C@H](C)[C@@H](O[C@@H]3O[C@H](C)C[C@H](N(C)C)[C@H]3O)[C@](C)(OC)C[C@@H](C)C(=O)[C@H](C)[C@@H](O)[C@](C)(O)[C@@H](CC)OC(=O)[C@@H]2C)C[C@@]1(C)OC | Streptococcus pneumoniae | µg/mL | 4 |
| CC[C@H]1OC(=O)[C@H](C)[C@@H](O[C@H]2C[C@@](C)(OC)[C@@H](OC(=O)NCCCC(=O)NCc3ccc(F)cc3)[C@H](C)O2)[C@H](C)[C@@H](O[C@@H]2O[C@H](C)C[C@H](N(C)C)[C@H]2O)[C@](C)(OC)C[C@@H](C)C(=O)[C@H](C)[C@@H](O)[C@]1(C)O | Streptococcus pneumoniae | µg/mL | 0.25 |
| CC[C@H]1OC(=O)[C@H](C)[C@@H](O[C@H]2C[C@@](C)(OC)[C@@H](OC(=O)NCCCCCC(=O)NCc3ccc(F)cc3)[C@H](C)O2)[C@H](C)[C@@H](O[C@@H]2O[C@H](C)C[C@H](N(C)C)[C@H]2O)[C@](C)(OC)C[C@@H](C)C(=O)[C@H](C)[C@@H](O)[C@]1(C)O | Streptococcus pneumoniae | µg/mL | 0.5 |

For every item below, please supply its MIC.
1. CCCCNC(=O)O[C@H]1[C@H](C)O[C@@H](O[C@H]2[C@H](C)[C@@H](O[C@@H]3O[C@H](C)C[C@H](N(C)C)[C@H]3O)[C@](C)(OC)C[C@@H](C)C(=O)[C@H](C)[C@@H](O)[C@](C)(O)[C@@H](CC)OC(=O)[C@@H]2C)C[C@@]1(C)OC
2. CC[C@H]1OC(=O)[C@H](C)[C@@H](O[C@H]2C[C@@](C)(OC)[C@@H](OC(=O)NCc3ccc(OC)cc3)[C@H](C)O2)[C@H](C)[C@@H](O[C@@H]2O[C@H](C)C[C@H](N(C)C)[C@H]2O)[C@](C)(OC)C[C@@H](C)C(=O)[C@H](C)[C@@H](O)[C@]1(C)O
3. CCCCNC(=O)CCCNC(=O)O[C@H]1[C@H](C)O[C@@H](O[C@H]2[C@H](C)[C@@H](O[C@@H]3O[C@H](C)C[C@H](N(C)C)[C@H]3O)[C@](C)(OC)C[C@@H](C)C(=O)[C@H](C)[C@@H](O)[C@](C)(O)[C@@H](CC)OC(=O)[C@@H]2C)C[C@@]1(C)OC

1
0.25
8
